Where these numbers come from: patent US20110165145A1

- experimentalTarget: insulin-like growth factor I (IGF-I) (UniProt P05019 49-118)
- Sequence (P05019 49-118 limits assumed): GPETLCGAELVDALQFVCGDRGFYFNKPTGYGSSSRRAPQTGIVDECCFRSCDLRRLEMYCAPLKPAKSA
- assayDetails: cell-based or functional assay
endpoint: IGF-I stimulated Ba/F3 cell proliferation, sFab at 50 µg/ml

Reported IGF-I stimulated Ba/F3 cell proliferation, sFab at 50 µg/ml, binder M0064-F02 Fab (Fab, V domains shown, soluble Fab (sFab); also the Fab crystallised with IGF-II; also called R0032-A11; 566A-M0064-F02) VH: EVQLLESGGGLVQPGGSLRLSCAASGFTFSNYIMWWVRQAPGKGLEWVSVISSSGGMTRYADSVKGRFTISRDNSKNTLYLQMNSLRAEDTAVYYCARDNGDYVGEKGFDIWGQGTMVTVSS VL: DIQMTQSPSSLSASVGDRVTITCRASQSISNYLNWYQQKPGKAPKLLIYTASTLQSGVPSRFSGSASGTDFTLTINSLQPEDFATYSCQQSYNSPWTFGQGTKVEIKR : ____
~30 % inhibition
